Recorded melting point values for a group of molecules are listed next.
Where a name gives a salt, the structure may show the parent alone.

A selection of reference data follows.
- molecule: "CCN(c1nc(C)cc(C)n1)c1ccc(C(C)C)cc1[S+](C)[O-] (centres unmarked) [compound 169]"
  melting point: "144 to 146 °C"
- molecule: "CCN(c1nc(C)nc(N2CCSC2)n1)c1ccc(C(C)C)cc1Br [compound 241]"
  melting point: "70 to 72 °C"
- molecule: "CCc1ccc(N(CC)c2nc(C)cc(C)n2)c(SC)c1 (as salt: hydrochloride) [compound 182]"
  melting point: "140 to 141 °C"
- molecule: "Cc1cc(N2CCSCC2)nc(Nc2c(Br)cc(C(C)C)cc2Br)n1 [compound 166]"
  melting point: "194 to 195 °C"
- molecule: "CCN(c1nc(C)nc(OCc2ccccc2)n1)c1ccc(C(C)C)cc1Br (as salt: hydrochloride) [compound 242]"
  melting point: "89 to 90 °C"
- molecule: "Cc1cc(C)nc(N(CC2CC2)c2ccc(C(C)C)cc2Br)n1 (as salt: hydrochloride) [compound 33]"
  melting point: "146 to 148 °C"

For reference, reported melting point for CCN(c1nc(C)cc(C)n1)c1ccc(Br)cc1SC [compound 180] stands at 91 to 93 °C

For reference, reported melting point for CCN(c1nc(C)cc(N2CCCC2)n1)c1ccc(C(C)C)cc1Br [compound 192] stands at 106 to 107 °C

====

Recorded melting point values for a group of compounds are listed next.
Counter-ions that a name gives are not always drawn.

- compound: "CCN(c1nc(C)cc(C)n1)c1ccc(C(C)C)cc1S(C)(=O)=O [compound 174]"
  melting point: "174 to 176 °C"
- compound: "CCOc1cc(Br)c(N(CC)c2nc(C)cc(C)n2)c(Br)c1 [compound 224]"
  melting point: "107 to 108 °C"
- compound: "CCc1ccc(N(c2nc(C)cc(C)n2)C(C)C)c(SC)c1 [compound 181]"
  melting point: "85 to 87 °C"
- compound: "CCN(c1nc(C)nc(N2CCOCC2)n1)c1ccc(C(C)C)cc1Br (as salt: hydrochloride) [compound 134]"
  melting point: "59 to 63 °C"
- compound: "CCN(c1nc(C)cc(C(=O)N2CCN(c3ncccn3)CC2)n1)c1ccc(C(C)C)cc1Br [compound 273]"
  melting point: "114 to 116 °C"

For reference, reported melting point for Cc1ccc(N(C)c2nc(C)cc(C)n2)c(Br)c1 (as salt: hydrochloride) [compound 1] stands at 120 to 121 °C

For reference, reported melting point for Cc1cc(Cl)c2c(C#N)cn(-c3ccc(C(C)C)cc3Br)c2n1 [Synth. Ex. 74] stands at 123.3 °C

====

Recorded pKi values for a group of compounds are listed next.
# study.system: CRF receptor (Rattus norvegicus, UniProt P35353)
# Construct: 100 μl of membrane suspension as prepared above to give a total reaction volume of 300 μl; from tissue; host or cells: rat cerebral cortex membrane homogenate
# assay.name: In vitro CRF receptor binding assay (competition with [125I] ovine CRF, rat cortex membranes)
# measurement.parameters: read-out: Inhibition Ki
pKi: −log10 of the molar value.

A selection of reference data follows.
- compound: "Cc1cc(C)nc(N(CC#N)c2ccc(C(C)C)cc2Br)n1 [compound 32]"
  pKi: "> 6.30"
- compound: "CCN(c1nc(C)cc(N2CCN(C=O)CC2)n1)c1ccc(C(C)C)cc1Br [compound 25]"
  pKi: "> 6.30"
- compound: "CCN(c1nc(C)nc(C)n1)c1ccc(C(C)C)cc1Br [compound 133]"
  pKi: "5.70 to 6.30"
- compound: "CCN(c1nc(C)cc(C)n1)c1ccc(NC)cc1SC [compound 190]"
  pKi: "> 6.30"
- compound: "CCSc1cc(C(C)C)ccc1N(CC)c1nc(C)cc(C)n1 [compound 175]"
  pKi: "5.70 to 6.30"

For reference, reported pKi for CCN(c1nc(C)cc(CN2CCN(c3ncccn3)CC2)n1)c1ccc(C(C)C)cc1Br [compound 281] stands at > 6.30

For reference, reported pKi for C=CCN(c1nc(C)cc(N2CCOCC2)n1)c1ccc(C(C)C)cc1Br [compound 17] stands at > 6.30

For reference, reported pKi for CCN(c1nc(C)cc(C)n1)c1ccc(C2CCCCC2)cc1Br [compound 22] stands at 5.70 to 6.30

====

Counter-ions that a name gives are not always drawn.
Recorded melting point values for a group of molecules are listed next.

- molecule: "CCOC(=O)c1ccc(N(CC)c2nc(C)cc(C)n2)c(SC)c1 [compound 184]"
  measured.quantity: "melting point"
  result: "99 to 100 °C"
- molecule: "Cc1cc(C)nc(N(C)c2ccc(I)cc2)n1 (as salt: hydrochloride) [compound 52]"
  measured.quantity: "melting point"
  result: "175 to 177 °C"
- molecule: "CCN(c1nc(C)cc(C)n1)c1ccc(N(C)C)cc1SC [compound 191]"
  measured.quantity: "melting point"
  result: "119 to 120 °C"

For reference, reported melting point for C=CCN(c1nc(C)cc(N2CCOCC2)n1)c1ccc(C(C)C)cc1I [compound 165] stands at 109 to 112 °C

For reference, reported melting point for CCN(c1nc(C)nc(C(C#N)c2ccccc2)n1)c1c(Br)cc(OC)cc1OC (stereo not shown) [compound 247] stands at 50 to 52 °C

For reference, reported melting point for COc1cc(Br)c(Nc2nc(C)cc(C)n2)c(OC)c1 [compound 203] stands at 177 to 179 °C

For reference, reported melting point for CCSc1cc(C(C)C)ccc1N(CC)c1nc(C)cc(C)n1 (as salt: hydrochloride) [compound 175] stands at 128 to 130 °C

For reference, reported melting point for CCN(c1nc(C)cc(C(=O)c2cc[nH]n2)n1)c1ccc(C(C)C)cc1Br [compound 286] stands at 171 to 173 °C

For reference, reported melting point for Cc1cc(Cl)c2c(C#N)cn(-c3ccc(C(C)C)cc3Br)c2n1 [Example 255] stands at 179.2 °C

For reference, reported melting point for COc1cc(Br)c(Nc2nc(C)cc(C)n2)c(Br)c1 [compound 223] stands at 175 to 177 °C

For reference, reported melting point for CCN(c1nc(C)cc(CN2CCN(c3ccccc3OC)CC2)n1)c1ccc(C(C)C)cc1Br (as salt: HCl) [compound 275] stands at 102 to 104 °C

For reference, reported melting point for COc1cc(OC)c(N(C)c2nc(C)cc(C)n2)c(OC)c1 [compound 14] stands at 145 to 146 °C

For reference, reported melting point for CCN(c1nc(C)cc(C)n1)c1c(Br)cc(OC)cc1Br [compound 226] stands at 101 to 103 °C

For reference, reported melting point for CCN(c1nc(C)cc(C)n1)c1c(O)cc(OC)cc1Br [compound 230] stands at 157 to 160 °C

For reference, reported melting point for Cc1cc(C)nc(N(C)c2ccc(C(C)(C)C)cc2Br)n1 (as salt: hydrochloride) [compound 11] stands at 193 to 195 °C

For reference, reported melting point for CCN(c1nc(C)cc(N2CCOCC2)n1)c1ccc(C(C)C)cc1I [compound 30] stands at 96 to 98 °C

For reference, reported melting point for C=CCN(c1nc(C)cc(C)n1)c1ccccc1Br (as salt: hydrochloride) [compound 3] stands at 127 to 129 °C

For reference, reported melting point for COc1cc(Cl)c(Nc2nc(C)cc(C)n2)c(OC)c1 [compound 145] stands at 170 to 173 °C

For reference, reported melting point for CCN(c1nc(C)cc(C)n1)c1cc(Br)c(OC)cc1OC [compound 253] stands at 143 to 145 °C

====

Recorded pKi values for a group of compounds are listed next.
# study.system: CRF receptor (Rattus norvegicus)
# Construct: 100 μl of membrane suspension as prepared above to give a total reaction volume of 300 μl; from tissue; host or cells: rat cerebral cortex membrane homogenate
# Sequence (P35353 24-415): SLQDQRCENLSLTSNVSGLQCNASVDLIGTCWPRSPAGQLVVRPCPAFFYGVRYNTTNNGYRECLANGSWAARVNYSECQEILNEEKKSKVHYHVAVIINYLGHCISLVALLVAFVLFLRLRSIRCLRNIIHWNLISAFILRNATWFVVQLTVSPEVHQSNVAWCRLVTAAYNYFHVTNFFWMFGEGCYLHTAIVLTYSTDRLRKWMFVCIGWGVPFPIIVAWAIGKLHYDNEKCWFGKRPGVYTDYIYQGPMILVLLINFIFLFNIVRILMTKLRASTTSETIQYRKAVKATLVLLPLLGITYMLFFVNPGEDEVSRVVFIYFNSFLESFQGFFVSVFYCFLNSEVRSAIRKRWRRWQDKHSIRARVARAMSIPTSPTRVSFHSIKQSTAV
# assay.name: In vitro CRF receptor binding assay (competition with [125I] ovine CRF, rat cortex membranes)
# measurement.parameters: read-out: Inhibition Ki
pKi: −log10 of the molar value.

A selection of reference data follows.
- compound: "CCN(c1nc(C)cc(C)n1)c1ccc(C(C)C)cc1Br"
  study.system: "CRF receptor (Rattus norvegicus)"
  pKi: "> 6.30"
- compound: "CCN(c1nc(C)cc(OCCCSC)n1)c1ccc(C(C)C)cc1Br"
  study.system: "CRF receptor (Rattus norvegicus)"
  pKi: "> 6.30"
- compound: "CCN(c1nc(C)nc(N2CCOCC2)n1)c1c(Br)cc(OC)cc1OC"
  study.system: "CRF receptor (Rattus norvegicus)"
  pKi: "> 6.30"
- compound: "CCN(c1nc(C)cc(C(=O)c2cccnc2)n1)c1ccc(C(C)C)cc1Br"
  study.system: "CRF receptor (Rattus norvegicus)"
  pKi: "> 6.30"
- compound: "CCN(c1nc(C)nc(Oc2ccccc2)n1)c1ccc(C(C)C)cc1Br"
  study.system: "CRF receptor (Rattus norvegicus)"
  pKi: "5.00 to 5.70"
- compound: "CCN(c1nc(C)cc(COCc2ccco2)n1)c1ccc(C(C)C)cc1Br"
  study.system: "CRF receptor (Rattus norvegicus)"
  pKi: "> 6.30"

For reference, reported pKi for `CCN(c1nc(C)cc(C)n1)c1ccc(N(C)C)cc1SC` stands at > 6.30

For reference, reported pKi for `CCN(c1nc(C)cc(C)n1)c1c(O)cc(OC)cc1Br` stands at > 6.30

For reference, reported pKi for `CCCCN(c1nc(C)cc(C)n1)c1ccc(C(C)C)cc1Br` stands at 5.70 to 6.30

For reference, reported pKi for CCN(c1nc(C)cc(C(C)O)n1)c1ccc(C(C)C)cc1Br (stereo not shown) stands at > 6.30

For reference, reported pKi for `CCCCc1ccc(N(CCC)c2nc(C)cc(C)n2)c(Br)c1` stands at > 6.30

For reference, reported pKi for `COc1cc(Br)c(Nc2nc(C)cc(C)n2)c(Br)c1` stands at 5.70 to 6.30

For reference, reported pKi for `CCN(c1nc(C)nc(N(C)C)n1)c1ccc(C(C)C)cc1Br` stands at > 6.30

For reference, reported pKi for `CCN(c1nc(C)cc(COc2cccc(N(C)C)c2)n1)c1ccc(C(C)C)cc1Br` stands at 5.70 to 6.30

For reference, reported pKi for `CCN(c1nc(C)cc(SC)n1)c1ccc(C(C)C)cc1Br` stands at > 6.30

For reference, reported pKi for `CCN(CC)c1nc(C)nc(N(CC)c2ccc(C(C)C)cc2Br)n1` stands at > 6.30

For reference, reported pKi for `CCN(c1nc(C)nc(Cl)n1)c1ccc(C(C)C)cc1Br` stands at 5.70 to 6.30

For reference, reported pKi for `CCN(c1nc(C)cc(C)n1)c1cc(Br)c(OC)cc1OC` stands at 5.70 to 6.30

For reference, reported pKi for `CCN(c1nc(C)cc(S(C)(=O)=O)n1)c1ccc(C(C)C)cc1Br` stands at > 6.30

For reference, reported pKi for `Cc1cc(N2CCSCC2)nc(Nc2c(Br)cc(C(C)C)cc2Br)n1` stands at > 6.30

For reference, reported pKi for `CCN(c1nc(C)cc(C)n1)c1ccccc1Br` stands at 5.70 to 6.30

For reference, reported pKi for `CCN(c1nc(C)cc(OCCCS(C)(=O)=O)n1)c1ccc(C(C)C)cc1Br` stands at > 6.30

For reference, reported pKi for `CCN(c1nc(C)nc(N2CCCCC2)n1)c1ccc(C(C)C)cc1I` stands at > 6.30

For reference, reported pKi for `CCN(c1nc(C)cc(COc2ncccn2)n1)c1ccc(C(C)C)cc1Br` stands at > 6.30

For reference, reported pKi for `CCN(c1nc(C)cc(C)n1)c1ccc(OC)cc1OC` stands at > 6.30

For reference, reported pKi for `CCN(c1nc(C)cc(COCC(=O)N2CCOCC2)n1)c1ccc(C(C)C)cc1Br` stands at 5.00 to 5.70

For reference, reported pKi for `CCN(c1nc(C)cc(OC[C@@H]2CCCN2C)n1)c1ccc(C(C)C)cc1SC` stands at 5.70 to 6.30

For reference, reported pKi for `CCN(c1nc(C)cc(C(=O)N2CCN(c3ccccc3OC)CC2)n1)c1ccc(C(C)C)cc1Br` stands at > 6.30
